Reference for the values: patent US8299048B2

# measured.on: human GR (Homo sapiens)
# method.description: Transrepression Assay (GITAR), TNFα-β-lactamase reporter in U937 cells
# Assay type: cell-based
# Parameters: U937 cells contain an endogenous glucocorticoid receptor (GR); endogenous in cells; host or cells: U937 cells stably transfected with the TNF-alpha promoter/beta-lactamase reporter
# condition: U937 cells; inflection point; read-out: Transrepression U937 Cells GITAR IP
# Source text: This assay assesses the ability of test compounds to control transcription from the TNFα-β-lactamase reporter gene in U937 cells, a human myelomonocytic leukemia cell line that naturally expresses the human GR. The assay measures compound dependent-repression of the TNFa promoter linked to a reporter gene. The human U937 cells that had been stablely transfected with the TNF-α promoter driving β-lactamase are used for this assay. U937 cells contain an endogenous glucocorticoid receptor (GR). […]
// assign met if EC50 falls strictly below 0.4 µM, else not met (ties count as not met)

>>> df
                                   compound    label
0  C[C@]12Cc3cnn(-c4ccc(F)cc4)c3C=C1CC[C@@H]2CN(CC1(O)CCCCC1)S(=O)(=O)c1ccccc1F  not met
1  C[C@@H](O)CN(C[C@H]1CCC2=Cc3c(cnn3-c3ccc(F)cc3)C[C@@]21C)S(=O)(=O)Cc1ccccc1C(N)=O  not met
2  C[C@]12Cc3cnn(-c4ccc(F)cc4)c3C=C1CC[C@@H]2CN(CCc1ccccc1CO)S(=O)(=O)CC(F)(F)F      met
3  CC(C1CCC2=Cc3c(cnn3-c3ccc(F)cc3)C[C@@]21C)N(CCc1ccccc1F)S(=O)(=O)CC(F)(F)F (some centres unmarked)      met
4  Cc1noc(C)c1S(=O)(=O)N(C[C@H]1CCC2=Cc3c(cnn3-c3ccc(F)cc3)C[C@@]21C)C[C@@H](C)O      met
5  Cc1cc(S(=O)(=O)N(CC#N)C[C@H]2CCC3=Cc4c(cnn4-c4ccc(F)cc4)C[C@@]32C)c(C)o1  not met
6  Cc1ccccc1S(=O)(=O)N(CC#N)C[C@H]1CCC2=Cc3c(cnn3-c3ccc(F)cc3)C[C@@]21C  not met
7  Cn1nc(C(F)(F)F)cc1-c1ccc(S(=O)(=O)N(CCO)C[C@H]2CCC3=Cc4c(cnn4-c4ccc(F)cc4)C[C@@]32C)s1  not met
8  CC(=O)Nc1ccc(S(=O)(=O)N(CCO)C[C@H]2CCC3=Cc4c(cnn4-c4ccc(F)cc4)C[C@@]32C)cc1  not met
9  COCCN(C[C@H]1CCC2=Cc3c(cnn3-c3ccc(F)cc3)C[C@@]21C)S(C)(=O)=O      met

###

# measured.on: human GR (Homo sapiens, UniProt P04150)
# Sequence (P04150 whole entry): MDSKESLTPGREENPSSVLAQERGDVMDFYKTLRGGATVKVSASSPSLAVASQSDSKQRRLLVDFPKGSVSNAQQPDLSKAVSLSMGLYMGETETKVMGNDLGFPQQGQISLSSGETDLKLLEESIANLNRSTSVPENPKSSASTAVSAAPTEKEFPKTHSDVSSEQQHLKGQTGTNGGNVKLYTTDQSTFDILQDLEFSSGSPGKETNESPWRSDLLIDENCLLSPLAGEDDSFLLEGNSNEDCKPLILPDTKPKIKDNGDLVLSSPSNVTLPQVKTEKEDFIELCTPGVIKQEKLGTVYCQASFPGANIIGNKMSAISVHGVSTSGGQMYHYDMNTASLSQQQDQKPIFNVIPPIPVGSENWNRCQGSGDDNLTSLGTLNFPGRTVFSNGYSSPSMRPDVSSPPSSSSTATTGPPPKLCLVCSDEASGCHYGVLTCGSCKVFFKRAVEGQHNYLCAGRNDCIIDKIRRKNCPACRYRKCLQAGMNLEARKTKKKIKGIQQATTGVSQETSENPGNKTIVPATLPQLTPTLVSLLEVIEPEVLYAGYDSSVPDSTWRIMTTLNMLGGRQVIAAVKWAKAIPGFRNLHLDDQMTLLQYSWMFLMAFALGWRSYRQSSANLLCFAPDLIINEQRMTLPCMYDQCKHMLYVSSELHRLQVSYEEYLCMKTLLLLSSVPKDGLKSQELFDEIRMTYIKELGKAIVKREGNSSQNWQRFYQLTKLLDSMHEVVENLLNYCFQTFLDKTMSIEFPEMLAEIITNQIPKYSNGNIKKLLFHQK
# method.description: Transrepression Assay (GITAR), TNFα-β-lactamase reporter in U937 cells
# Assay type: cell-based
# Design: U937 cells contain an endogenous glucocorticoid receptor (GR); endogenous in cells; host or cells: U937 cells stably transfected with the TNF-alpha promoter/beta-lactamase reporter
# condition: U937 cells; inflection point; read-out: Transrepression U937 Cells GITAR IP
# Lookup of reported EC50 keyed by entry
measurement.type: EC50 (nM)

>>> print(df.to_string())
                               given_smiles  measurement_type  scale_unit  assay_result
0  Cc1nn(C)c(Cl)c1S(=O)(=O)N(CC#N)C[C@H]1CCC2=Cc3c(cnn3-c3ccc(F)cc3)C[C@@]21C              EC50          nM           869
1  C[C@]12Cc3cnn(-c4ccc(F)cc4)c3C=C1CC[C@@H]2CN(CCO)S(=O)(=O)c1cc(C(F)(F)F)ccc1Cl              EC50          nM          2580
2  C[C@]12Cc3cnn(-c4ccc(F)cc4)c3C=C1CC[C@@H]2CN(CCO)S(=O)(=O)c1ccccc1C#N              EC50          nM           883
3  C[C@]12Cc3cnn(-c4ccc(F)cc4)c3C=C1CC[C@@H]2CN(CC#N)S(=O)(=O)c1cccc2ccccc12              EC50          nM          35.5
